- System: RPMI-8226
- EXPERIMENT NOTES: NCI-60 one-dose SRB screening
- Format: cell-based
- TEST SETTINGS: Homo sapiens, RPMI-8226, Leukemia, 10 µM one dose, 48 h, read-out: growth percentage
QUANTITY KIND: activity at 10 µM (%)
Respond numerically; units are % and should not be typed.

Ask: Hello, please tell me recorded activity at 10 µM for this one: "Cc1nc(Nc2ccc(OCc3c(-c4ccccc4)no[n+]3[O-])cc2)c2c(C)nn(-c3ccc(Br)cc3)c2n1"
Result: 90.6

Ask: Determine its reported activity at 10 µM: "Cc1nn(-c2ccccc2)c2ncnc(Nc3ccc(OCc4c(-c5ccccc5)no[n+]4[O-])cc3)c12"
Result: 94

Ask: Report activity at 10 µM, nothing else, for this compound: O=c1[nH]c(CNc2ccc(NCc3c(-c4ccccc4)no[n+]3[O-])cc2)nc2c1cnn2-c1ccccc1 [14a]
Result: 61.9

Ask: Tell me measured activity at 10 µM for "[O-][n+]1onc(-c2ccccc2)c1COc1ccc(Nc2ncnc3c2cnn3-c2ccc(Br)cc2)cc1" please.
Result: 111

Ask: Output activity at 10 µM of [O-][n+]1onc(-c2ccccc2)c1CNc1ccc(Nc2nc(C(F)(F)F)nc3c2cnn3-c2ccc(Br)cc2)cc1 [12b]
Result: 73.8

Ask: Provide measured activity at 10 µM value, entry: Cc1nn(-c2ccc(Br)cc2)c2nc(CNc3ccc(NCc4c(-c5ccccc5)no[n+]4[O-])cc3)[nH]c(=O)c12 [14c]
Result: 112

Ask: Fill in activity at 10 µM for record "Cc1nn(-c2ccc(Br)cc2)c2ncnc(Nc3ccc(OCc4c(-c5ccccc5)no[n+]4[O-])cc3)c12"
Result: 108

----------
Can you tell me activity at 10 µM for the items I'm about to list?
- Tested on: UACC-257
- EXPERIMENT NOTES: NCI-60 one-dose SRB screening
- Assay type: cell-based
- TEST SETTINGS: Homo sapiens, UACC-257, Melanoma, 10 µM one dose, 48 h, read-out: growth percentage
All answers are understood in %, so give the number only.

Ask: # lookup: UACC-257 activity at 10 µM, key = [O-][n+]1onc(-c2ccccc2)c1COc1ccc(Nc2ncnc3c2cnn3-c2ccccc2)cc1 [6a]
Result: 98.9

Ask: Name the value of activity at 10 µM reported for O=c1[nH]c(CCl)nc2c1cnn2-c1ccccc1 [13a] when tested on UACC-257.
Result: 99

Ask: Lab note: UACC-257 assay, enter activity at 10 µM for Cc1nn(-c2ccccc2)c2ncnc(Nc3ccc(OCc4c(-c5ccccc5)no[n+]4[O-])cc3)c12 [6c] here
Result: 105

Ask: Quote activity at 10 µM with test system UACC-257 for Cc1nn(-c2ccccc2)c2nc(CNc3ccc(NCc4c(-c5ccccc5)no[n+]4[O-])cc3)[nH]c(=O)c12 [14b]
Result: 90.1

----------
- System: OVCAR-4
- EXPERIMENT NOTES: NCI-60 one-dose SRB screening
- Format: cell-based
- TEST SETTINGS: Homo sapiens, OVCAR-4, Ovarian Cancer, 10 µM one dose, 48 h, read-out: growth percentage
Please respond with reported activity at 10 µM for every item in the list.

Ask: Please give the documented activity at 10 µM of Cc1nc(Nc2ccc(OCc3c(-c4ccccc4)no[n+]3[O-])cc2)c2c(C)nn(-c3ccccc3)c2n1 [6d]
Result: 103%

Ask: Please indicate activity at 10 µM recorded for Nc1ccc(NCc2c(-c3ccccc3)no[n+]2[O-])cc1 [compound 11]
Result: 118%

Ask: Read the entry Cc1nn(-c2ccccc2)c2nc(CCl)[nH]c(=O)c12 [13b] and write its reported activity at 10 µM.
Result: 90.9%

Ask: Kindly indicate its recorded activity at 10 µM. Item: Cc1nn(-c2ccc(Br)cc2)c2nc(CNc3ccc(NCc4c(-c5ccccc5)no[n+]4[O-])cc3)[nH]c(=O)c12 [14c]
Result: 127%

Ask: Kindly indicate its recorded activity at 10 µM. Item: O=c1[nH]c(CNc2ccc(NCc3c(-c4ccccc4)no[n+]3[O-])cc2)nc2c1cnn2-c1ccccc1 [14a]
Result: 94.5%

Ask: Please give measured activity at 10 µM of the following entry: Cc1nc(Nc2ccc(OCc3c(-c4ccccc4)no[n+]3[O-])cc2)c2c(C)nn(-c3ccc(Br)cc3)c2n1 [6h]
Result: 97%

Ask: Input [O-][n+]1onc(-c2ccccc2)c1CNc1ccc(Nc2nc(C(F)(F)F)nc3c2cnn3-c2ccc(Br)cc2)cc1 [12b] , output reported activity at 10 µM.
Result: 78.5%

Ask: Return reported activity at 10 µM. Input molecule: [O-][n+]1onc(-c2ccccc2)c1COc1ccc(Nc2ncnc3c2cnn3-c2ccccc2)cc1 [6a]
Result: 130%

From: paper PMC8880564
